Experiment Summary: PK study: plasma levels after i.p. administration (LC/MS/MS)
Format: in vivo, Mouse (ICR:CD-1)
Measurement Conditions: CD-1, mouse, plasma, intraperitoneal, 100 mg/kg, 100 mg/kg i.p., 120 min, average of 3 mice; read-out: Average (ng/ml), (—)-trans-CBD-PET in plasma
Reported Property: concentration at 120 min (ng/mL)

* C=C(C)[C@@H]1CCC(C)=C[C@H]1c1c(O)cc(CCc2ccccc2)cc1O [(−)-trans-CBD-PET] | 1310

---

Experiment Summary: PK study: plasma levels after i.p. administration (LC/MS/MS)
Format: in vivo, Mouse (ICR:CD-1)
Measurement Conditions: CD-1, mouse, plasma, intraperitoneal, 100 mg/kg, 100 mg/kg i.p., 120 min, average of 3 mice; read-out: Average (ng/ml), (—)-trans-CBD-PET-OH in plasma
Reported Property: concentration at 120 min

* C=C(C)[C@@H]1CCC(C)=C[C@H]1c1c(O)cc(CCc2ccc(O)cc2)cc1O [(−)-trans-CBD-PET-OH] | 3460 ng/mL

---

Experiment Summary: PK study: plasma levels after i.p. administration (LC/MS/MS)
Format: in vivo, Mouse (ICR:CD-1)
Measurement Conditions: CD-1, mouse, plasma, intraperitoneal, 100 mg/kg, 100 mg/kg i.p., 30 min, average of 3 mice; read-out: Average (ng/ml), (—)-trans-CBD-PET-OH in plasma
Reported Property: concentration at 30 min (ng/mL)

* C=C(C)[C@@H]1CCC(C)=C[C@H]1c1c(O)cc(CCc2ccc(O)cc2)cc1O [(−)-trans-CBD-PET-OH] | 8120

---

Experiment Summary: PK study: plasma levels after i.p. administration (LC/MS/MS)
Format: in vivo, Mouse (ICR:CD-1)
Measurement Conditions: CD-1, mouse, plasma, intraperitoneal, 100 mg/kg, 100 mg/kg i.p., 30 min, individual animals; read-out: (—)-trans-CBD-PET-OH in plasma
Reported Property: concentration at 30 min (ng/mL)

* C=C(C)[C@@H]1CCC(C)=C[C@H]1c1c(O)cc(CCc2ccc(O)cc2)cc1O [(−)-trans-CBD-PET-OH] | 6520

---

Experiment Summary: PK study: plasma levels after i.p. administration (LC/MS/MS)
Assay type: in vivo, Mouse (ICR:CD-1)
Measurement Conditions: CD-1, mouse, plasma, intraperitoneal, 100 mg/kg, 100 mg/kg i.p., 60 min, average of 3 mice; read-out: Average (ng/ml), (—)-trans-CBD-PET-OH in plasma
Reported Property: concentration at 60 min (ng/mL)

• C=C(C)[C@@H]1CCC(C)=C[C@H]1c1c(O)cc(CCc2ccc(O)cc2)cc1O [(−)-trans-CBD-PET-OH] = 7920

---

Experiment Summary: PK study: plasma levels after i.p. administration (LC/MS/MS)
Format: in vivo, Mouse (ICR:CD-1)
Measurement Conditions: CD-1, mouse, plasma, intraperitoneal, 100 mg/kg, 100 mg/kg i.p., 30 min, individual animals; read-out: (—)-trans-CBD-PET in plasma
Reported Property: concentration at 30 min (ng/mL)

• C=C(C)[C@@H]1CCC(C)=C[C@H]1c1c(O)cc(CCc2ccccc2)cc1O [(−)-trans-CBD-PET] = 4030
